Sourced from patent US20250250357A1

experimental-target: T1, human MSLN-R3 protein (human, UniProt Q13421 487-598)
T1 construct: also called hMSLN-R3
T1 sequence (Q13421 495-606, form in doubt): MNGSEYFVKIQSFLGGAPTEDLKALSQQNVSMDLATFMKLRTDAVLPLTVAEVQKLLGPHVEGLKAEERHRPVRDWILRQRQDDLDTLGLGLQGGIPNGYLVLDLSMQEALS
experiment-description: ELISA on coated antigen, antibody 1 nM

| binder | OD450 [OD450] |
| --- | --- |
| F7.33.24-H1 (scFv, not shown: small tags and cut ends, also called S009-F7.33.24 humanized antibody VH1 + VL1) scFv: EVQLVQSGAEVKKPGASVKVSCKASGYTFTSYWMHWVRQAPGQRLEWMGNVNPSNGGSNYNEKFKNRVTITVDKSASTAYMELSSLRSEDTAVYYCAPHYIGSRPGFAYWGQGTLVTVSSGGGGSGGGGSGGGGSDIVMTQSPDSLAVSLGERATINCKASQNVGTNIAWYQQKPGQSPKALIYSASYRYSGVPDRFSGSGSGTDFTLTISSLQAEDVAVYYCQQYNSYPLTFGGGTKVEIK | 0.52 |
| F7.33.24 (scFv, not shown: small tags and cut ends, also called S009-F7.33.24 (parental variable regions, in the humanized-antibody ELISA)) scFv: QVQLQQPGTELVKPGASVKLSCKASGYTFTSYWMHWVKQRPGQGLEWIGNVNPSNGGSNYNEKFKNKATLTVDKSSSTADMQLNSLTSEDSAVYYCAPHYIGSRPGFAYWGQGTLVTVSGGGGGSGGGGSGGGGSDIVMTQSQKFMSTSVGDRVSVTCKASQNVGTNIAWYQQKPGQSPKALIYSASYRYSGVPDRFTGSGSGTDFTLTITNVQSEDLAEYFCQQYNSYPLTFGGGTKVEIK | 0.71 |
| F7.33.24-H4 (scFv, not shown: small tags and cut ends, also called S009-F7.33.24 humanized antibody VH1a + VL1) scFv: EVQLVQSGAEVKKPGASVKVSCKASGYTFTSYWMHWVRQAPGQRLEWMGNVNPSSGGSNYNEKFKNRVTITVDKSASTAYMELSSLRSEDTAVYYCAPHYIGSRPGFAYWGQGTLVTVSSGGGGSGGGGSGGGGSDIVMTQSPDSLAVSLGERATINCKASQNVGTNIAWYQQKPGQSPKALIYSASYRYSGVPDRFSGSGSGTDFTLTISSLQAEDVAVYYCQQYNSYPLTFGGGTKVEIK | 0.45 |
